The reported numbers originate from PubChem BioAssay (EPA / NIEHS).

Assay: LTEA_HepaRG_LDH_cytotoxicity: Cytotoxicity Assessment in the Life Technologies and Expression Analysis (LTEA) Assay (AID 2283563)
Calls of active or inactive are those of the source. The calls were made as follows: active = hit-call score of the fitted dose curve at least 0.9, where 1 is the maximum; inconclusive = response in the unintended direction; inactive = score below 0.9.
Choose one outcome from this list and give only that: active, inactive

# count of solved cases: 5
1) COCc1cnc(C2=NC(C)(C(C)C)C(=O)N2)c(C(=O)O)c1 (configuration not stated)    inactive
2) O=c1n(Cl)c(=O)n(Cl)c(=O)n1Cl    inactive
3) CO/N=C(/C1=NOCCO1)c1ccccc1Oc1ncnc(Oc2ccccc2Cl)c1F    active
4) CCN(CC)C(=O)C(C)Oc1cccc2ccccc12 (configuration not stated)    inactive
5) CCSC(=O)N1CCCCCC1    inactive

Problem: Hi, do you know how OC(c1ccc(Cl)cc1)(c1ccc(Cl)cc1)C(Cl)(Cl)Cl came out in this test?
Result: active

Problem: Answer briefly: the call reported for COP(=S)(OC)SCn1nnc2ccccc2c1=O in this assay.
Result: inactive

----------
Assay: ATG_ISRE_CIS: Attagene CIS-FACTORIAL HepG2 Assay for human Interferon Regulatory Factor 1 (IRF1) binding to an Interferon-Stimulated Response Element (ISRE) (AID 2282948)
Conditions: HepG2 ISRE cis-reporter (Attagene), mRNA transcription readout; actives raise or lower the signal
The source made the active and inactive calls. Rule for the calls: active = hit-call score of the fitted dose curve at least 0.9, where 1 is the maximum; inactive = score below 0.9.
Reply using exactly one outcome from yes = active, no = inactive

// known answers, use as guide
1. Nc1cnn(-c2ccccc2)c(=O)c1Cl    no
2. Cc1ccc(N=CN(C)C=Nc2ccc(C)cc2C)c(C)c1    no
3. CN=C=S    no
4. CSC(=O)c1c(C(F)F)nc(C(F)(F)F)c(C(=O)SC)c1CC(C)C    no
5. C=CCOC(=O)C(C)(C)OC(=O)c1cc(-n2c(=O)cc(C(F)(F)F)n(C)c2=O)ccc1Cl    no

With those in mind, consider the next compound.
Problem: Short answer needed: outcome of this test for Cc1cnc(C2=NC(C)(C(C)C)C(=O)N2)c(C(=O)O)c1 (stereo unspecified) ?
Result: no

----------
Read-out: cysteine-aspartic acid protease (CASP8), CASP8 (gene 841)
Assay: LTEA_HepaRG_CASP8: Life Technologies and Expression Analysis (LTEA) Assay for cysteine-aspartic acid protease (CASP8) using HepaRG (AID 2283480)
Settings: mRNA level, 48 h; actives raise or lower the signal
Activity calls are given as the source filed them. Rule for the calls: active = hit-call score of the fitted dose curve at least 0.9, where 1 is the maximum; inactive = score below 0.9.
One label from this list, please: Yes = active, No = inactive

Example results:
1) Clc1cccc(C(Cl)(Cl)Cl)n1    No
2) C=CCOC(=O)C(C)(C)OC(=O)c1cc(-n2c(=O)cc(C(F)(F)F)n(C)c2=O)ccc1Cl    No
3) C=C(C)CN(CC)c1c([N+](=O)[O-])cc(C(F)(F)F)cc1[N+](=O)[O-]    No
4) COc1cc(Cl)c(OC)cc1Cl    No
5) CCOP(=S)(OCC)Oc1nc(Cl)n(C(C)C)n1    No
6) OC(c1ccc(Cl)cc1)(c1ccc(Cl)cc1)C(Cl)(Cl)Cl    Yes
7) CCOc1nc(F)cc2nc(S(=O)(=O)Nc3c(Cl)cccc3Cl)nn12    No
8) CN=C=S    No

Problem: Dear all, I need the recorded test outcome for COC(=O)NS(=O)(=O)c1ccc(N)cc1 , thank you.
Result: No

Problem: Any idea what this test logged for COP(=O)(OC)O/C(C)=C/C(=O)N(C)C ?
Result: No

Problem: Lab log entry: O=C1C2CC=CCC2C(=O)N1SC(Cl)(Cl)Cl (stereo not given) — outcome as called in the assay?
Result: No

Problem: In this assay, the call recorded for N#CN=C1SCCN1Cc1ccc(Cl)nc1 was what?
Result: No

Problem: So what was the verdict on CCCC(=NOCC)C1=C(O)CC(CC(C)SCC)CC1=O (stereo not given) in this test?
Result: No

----------
Read-out: UDP glucuronosyltransferase (UGT1A6), UGT1A6 (gene 54578)
Assay: LTEA_HepaRG_UGT1A6: Life Technologies and Expression Analysis (LTEA) Assay for UDP glucuronosyltransferase (UGT1A6) using HepaRG (AID 2283539)
Conditions: mRNA level, 48 h; actives raise or lower the signal
Activity calls are given as the source filed them. How the source made its calls: active means hit-call score of the fitted dose curve at least 0.9, where 1 is the maximum; inactive means score below 0.9.
Parameter call: string, one of active, inactive

Consider the worked cases shown below.
1. CCN(CC)c1nc(C)cc(OP(=S)(OC)OC)n1    active
2. Cc1cc(C)nc(Nc2ccccc2)n1    inactive
3. COP(=O)(OC)O/C(C)=C/C(=O)N(C)C    inactive
4. CCNP(=S)(OC)O/C(C)=C/C(=O)OC(C)C (configuration not stated)    inactive

Problem: What outcome does the record of this test show for COP(=S)(OC)SCn1nnc2ccccc2c1=O ?
Result: inactive

Problem: What is the recorded call for this molecule in the test? CCC(C)n1c(=O)[nH]c(C)c(Br)c1=O (configuration not stated)
Result: inactive

Problem: What outcome does the record of this test show for CCOc1nc(F)cc2nc(S(=O)(=O)Nc3c(Cl)cccc3Cl)nn12 ?
Result: inactive

Problem: What outcome does the record of this test show for CC(C)(C)C(=O)C(Oc1ccc(Cl)cc1)n1cncn1 (configuration not stated) ?
Result: inactive

Problem: Answer briefly: the call reported for O=c1n(Cl)c(=O)n(Cl)c(=O)n1Cl in this assay.
Result: inactive

Problem: GET /call?item= Cc1c(COC(=O)[C@@H]2[C@H](/C=C(\Cl)C(F)(F)F)C2(C)C)cccc1-c1ccccc1 returns the recorded outcome of this test.
Result: inactive

Problem: Given CCCCC(O)(Cn1cncn1)c1ccc(Cl)cc1Cl (configuration not stated) , state the outcome it received in this test.
Result: active

Problem: Record request — test call for Cc1ccc(N=CN(C)C=Nc2ccc(C)cc2C)c(C)c1
Result: inactive

Problem: // outcome(item) with item = CCCCOCN(C(=O)CCl)c1c(CC)cccc1CC
Result: inactive

Problem: Which result was noted for this molecule in the test: Nc1c(Cl)c(Cl)nc(C(=O)O)c1Cl
Result: inactive

Problem: For this molecule, state the assay outcome: Nc1c(Cl)c(F)nc(OCC(=O)O)c1Cl
Result: inactive

Problem: For this molecule, state the assay outcome: C=C(C)CN(CC)c1c([N+](=O)[O-])cc(C(F)(F)F)cc1[N+](=O)[O-]
Result: inactive

----------
Read-out: CD40, CD40 (gene 958)
Assay: BSK_SAg_CD40: BioMAP Diversity Plus: SAg Assay for CD40 Biomarker Activity (AID 2283088)
Details: primary human HUVEC with PBMC; actives raise or lower the signal
Activity calls are given as the source filed them. The calls were made as follows: active = hit-call score of the fitted dose curve at least 0.9, where 1 is the maximum; inactive = score below 0.9.
Result category, one only: active, inactive

Solved cases below.
1. CCOP(=O)(OCC)Oc1nc(Cl)c(Cl)cc1Cl    active
2. CC(C)NC(=O)N1CC(=O)N(c2cc(Cl)cc(Cl)c2)C1=O    inactive
3. COc1ccc(-c2ccccc2)cc1NNC(=O)OC(C)C    inactive
4. CCCCOCN(C(=O)CCl)c1c(CC)cccc1CC    active
5. CCCC(=NOCC)C1=C(O)CC(CC(C)SCC)CC1=O (centres undefined)    inactive

Now for another entry.
Problem: Please share the test call associated with COC(=O)N(C(=O)N1CO[C@@]2(C(=O)OC)Cc3cc(Cl)ccc3C2=N1)c1ccc(OC(F)(F)F)cc1 .
Result: active

----------
Read-out: Urokinase-type plasminogen activator receptor (uPAR), PLAUR (gene 5329)
Test: BSK_CASM3C_uPAR: BioMAP Diversity Plus: CASM3C Assay for Urokinase-type plasminogen activator receptor (uPAR) Biomarker Activity (AID 2283054);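 also: cell-surface uPAR protein level quantified by ELISA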
Details: primary human coronary artery smooth muscle cells; actives raise or lower the signal
Calls of active or inactive are those of the source. The calls were made as follows: active = hit-call score of the fitted dose curve at least 0.9, where 1 is the maximum; inactive = score below 0.9.
Form entry, call: pick from 1 (yes) (active), 0 (no) (inactive)

Some entries whose results are on file:
1. Cc1ccc(N=CN(C)C=Nc2ccc(C)cc2C)c(C)c1    0 (no)
2. COCC(=O)N(c1c(C)cccc1C)C(C)C(=O)OC (stereo unspecified)    0 (no)
3. Clc1nc(Cl)nc(Nc2ccccc2Cl)n1    0 (no)

Problem: Assay result, entry CCNP(=S)(OC)O/C(C)=C/C(=O)OC(C)C (stereo unspecified) — outcome?
Result: 0 (no)

Problem: Short answer needed: outcome of this test for COP(=O)(OC)O/C(C)=C/C(=O)N(C)C ?
Result: 0 (no)

Problem: Hi, do you know how CC(C)(C)C(=O)C(Oc1ccc(Cl)cc1)n1cncn1 (stereo unspecified) came out in this test?
Result: 0 (no)

Problem: Each compound tested received a call. Report the one for COC(=O)N(C(=O)N1CO[C@@]2(C(=O)OC)Cc3cc(Cl)ccc3C2=N1)c1ccc(OC(F)(F)F)cc1 .
Result: 0 (no)

Problem: What call does the record list for OC(c1ccc(Cl)cc1)(c1ccc(Cl)cc1)C(Cl)(Cl)Cl ?
Result: 1 (yes)

Problem: For CNC(=O)N(C)c1nnc(C(C)(C)C)s1 , which call appears in the assay record?
Result: 0 (no)

Problem: Answer briefly: the call reported for O=C(O)c1c(Cl)ccc2cc(Cl)cnc12 in this assay.
Result: 0 (no)

Problem: Each compound tested received a call. Report the one for CC(C)C1(C)N=C(c2ncccc2C(=O)O)NC1=O (stereo unspecified) .
Result: 0 (no)
